Provenance of the data: patent US20230066286A1

- System: rat liver microsomes
- method.notes: Metabolic stability in rat liver microsomes (RLM)
- experimental.parameters: RLM assay; values in square brackets are within 10% difference (assay's accuracy), no deuteration effect
Would you mind telling me the reported RLM, % (half-life as % vs. the related nondeuterated compound) of each entry?

smiles	reported.measurement
[2H]C([2H])(NC)C([2H])([2H])c1c[nH]c2cccc(O)c12	160%

Query string: RLM, % (half-life as % vs. the related nondeuterated compound) lookup needed for [2H]C([2H])(c1c[nH]c2cccc(OC)c12)C([2H])([2H])N(C)C , thanks.
Result string: 190%

---

- Tested on: rat liver microsomes
- method.notes: Metabolic stability in rat liver microsomes (RLM)
- experimental.parameters: RLM assay; last time point 120 min
result.type: RLM (metabolized or not)

smiles	tested.target	RLM (metabolized or not)
CCN(C)CCc1c[nH]c2ccc(OC)cc12	rat liver microsomes	R
CCN(C)CCc1c[nH]c2ccc(O)cc12	rat liver microsomes	R
CC(C)NCCc1c[nH]c2ccccc12	rat liver microsomes	R
CC(C)N(CCc1c[nH]c2cccc(O)c12)C(C)C	rat liver microsomes	R
CCN(CC)CCc1c[nH]c2ccc(OC)cc12	rat liver microsomes	R

Batch lookup, RLM (metabolized or not) per entry.
1. CCNCCc1c[nH]c2ccccc12
2. [2H]c1ccc2[nH]c([2H])c(CCN([2H])CC)c2c1O
3. CN(C)CCc1c[nH]c2ccc(O)cc12
4. CC(C)NCCc1c[nH]c2cccc(O)c12
5. CCN(CC)CCc1c[nH]c2ccccc12

Result string:
1. R
2. R
3. R
4. R
5. R

Batch lookup, RLM (metabolized or not) per entry.
1. C=CCNCCc1c[nH]c2ccccc12
2. COc1cccc2[nH]cc(CCN(C)C)c12
3. CCN(C)CCc1c[nH]c2cccc(OC)c12

Result string:
["R", "R", "R"]

Query string: RLM (metabolized or not) lookup needed for CNCCc1c[nH]c2cccc(O)c12 , thanks.
Result string: R

---

Would you mind telling me the reported % Remaining of Initial 0 min of each entry?
- tested.target: hrMAO-A (Homo sapiens)
- Construct: purchased XenoTech Lot# 8213001
- Sequence (P21397 1-527): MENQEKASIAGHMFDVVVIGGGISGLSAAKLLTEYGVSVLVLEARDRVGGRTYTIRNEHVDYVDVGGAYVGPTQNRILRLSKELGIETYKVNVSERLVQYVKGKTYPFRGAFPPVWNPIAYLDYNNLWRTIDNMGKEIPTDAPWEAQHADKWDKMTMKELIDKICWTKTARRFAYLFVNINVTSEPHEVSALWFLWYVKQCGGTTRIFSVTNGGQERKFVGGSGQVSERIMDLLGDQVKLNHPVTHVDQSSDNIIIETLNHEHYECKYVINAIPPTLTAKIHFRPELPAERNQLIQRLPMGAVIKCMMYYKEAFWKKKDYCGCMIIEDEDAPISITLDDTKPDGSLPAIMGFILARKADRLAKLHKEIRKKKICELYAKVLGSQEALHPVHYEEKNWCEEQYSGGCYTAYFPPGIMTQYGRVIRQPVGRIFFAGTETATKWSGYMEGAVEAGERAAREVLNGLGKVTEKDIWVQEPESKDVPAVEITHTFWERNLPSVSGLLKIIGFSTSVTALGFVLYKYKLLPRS
- method.notes: Metabolic stability in the presence of hrMAO-A
- Type: in vitro ADME
- experimental.parameters: hrMAO-A; four test articles; 0 min
Numbers only, in %.

compound	% Remaining of Initial 0 min (%)
CN(C)CCc1c[nH]c2ccccc12	100
[2H]C([2H])(Cc1c[nH]c2ccccc12)N(C)C [DMT-d2]	100
[2H]C([2H])(c1c[nH]c2ccccc12)C([2H])([2H])N(C)C	100

The record that follows has no % Remaining of Initial 0 min shown yet.
Query string: % Remaining of Initial 0 min lookup needed for [2H]C([2H])([2H])N(C([2H])([2H])[2H])C([2H])([2H])C([2H])([2H])c1c[nH]c2ccccc12 , thanks.
Result string: 100
